Experiment: Cell Viability - SK-N-SH (AID 435);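 further: compound exposure lasted 40 h at 37 °C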
Details: SK-N-SH neuroblastoma cell viability qHTS
Inconclusive results are not listed. Activity calls are given as the source filed them. The call rests on the fitted dose curve.
Return exactly one item of class 1 = active, class 0 = inactive

Cc1cc(O)c2c(c1)C(=O)c1cc(O)cc(O)c1C2=O
class 1
COc1c2occc2cc2ccc(=O)oc12
class 0
Cc1ccc(C)c(OCCCC(C)(C)C(=O)O)c1
class 0

// outcome(item) with item = CS(=O)(=O)OCCCCOS(C)(=O)=O
class 0

Field: outcome | Entry: c1ccc2[nH]c(-c3cscn3)nc2c1
class 0

Which outcome did this test record for the molecule CN(C)c1ccc2nc3ccc(=[N+](C)C)cc-3sc2c1 ?
class 1

Assay result, entry CCCCC(CC)COC(=O)C(C#N)=C(c1ccccc1)c1ccccc1 (configuration not stated) — outcome?
class 0
